Data origin: PubChem BioAssay (EPA / NIEHS)

Assay notes: ATG_M_32_CIS: Attagene CIS-FACTORIAL HepG2 Assay for M32 Transcription Factor (Internal Marker) (AID 2282949);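 note: background control marker of the multiplexed CIS panel rather than a real target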
Assay conditions: HepG2 Attagene cis-factorial M32 reporter, mRNA; actives raise or lower the signal
Active and inactive are the calls of the source. Rule for the calls: active = hit-call score of the fitted dose curve at least 0.9, where 1 is the maximum; inactive = score below 0.9.
Respond using exactly one of the listed classes: active, inactive

Worked examples, 5 compounds total:
{"Compound": "O=c1[nH]c(=O)[nH]c(=O)[nH]1", "Assigned category": "inactive"}
{"Compound": "Nc1ccc(N=Nc2ccc(-c3ccc(N=Nc4c(S(=O)(=O)O)cc5cc(S(=O)(=O)O)c(N=Nc6ccccc6)c(O)c5c4N)cc3)cc2)c(N)c1", "Assigned category": "inactive"}
{"Compound": "O=C(CCl)CCl", "Assigned category": "active"}
{"Compound": "CCOP(=S)(OCC)SCSP(=S)(OCC)OCC", "Assigned category": "inactive"}
{"Compound": "Cc1ccc2ccccc2c1C", "Assigned category": "inactive"}

Which outcome was entered for the compound CC(C)(OO)c1ccccc1 in this test?
inactive

Which outcome was entered for the compound O=Cc1cccc(Oc2ccccc2)c1 in this test?
inactive

Which outcome was entered for the compound CC(C)(c1ccccc1)c1ccc(O)c(C(C)(C)c2ccccc2)c1 in this test?
inactive

Which outcome was entered for the compound Cc1ccccc1N in this test?
inactive

Which outcome was entered for the compound CCCCCCCCC(=O)NCc1ccc(O)c(OC)c1 in this test?
inactive

Which outcome was entered for the compound CCOP(=S)(OCC)Oc1nc(Cl)c(Cl)cc1Cl in this test?
inactive

Which outcome was entered for the compound COS(=O)(=O)c1ccc(C)cc1 in this test?
inactive

Which outcome was entered for the compound CC(Br)C(=O)O (stereo not drawn) in this test?
inactive

Which outcome was entered for the compound ClCCBr in this test?
inactive

Which outcome was entered for the compound C=CC(=O)OCCCCCC(C)C in this test?
inactive

Which outcome was entered for the compound CCCCCCCCc1ccc(O)cc1 in this test?
inactive

Which outcome was entered for the compound CCCCCCCCSC(=O)Oc1cc(Cl)nnc1-c1ccccc1 in this test?
inactive

====

Read-out: MYC, MYC (gene 4609)
Assay notes: LTEA_HepaRG_MYC: Life Technologies and Expression Analysis (LTEA) Assay for MYC using HepaRG (AID 2283518)
Assay conditions: mRNA level, 48 h; actives raise or lower the signal
Activity calls are given as the source filed them. The calls were made as follows: active = hit-call score of the fitted dose curve at least 0.9, where 1 is the maximum; inactive = score below 0.9.
Respond using exactly one of the listed classes: active, inactive

Worked examples, 5 compounds total:
{"Compound": "O=[N+]([O-])c1ccc(O)c([N+](=O)[O-])c1", "Assigned category": "active"}
{"Compound": "CCC(C)(C)c1ccc(O)c(C(C)(C)CC)c1", "Assigned category": "inactive"}
{"Compound": "Cn1sc(Cl)cc1=O", "Assigned category": "inactive"}
{"Compound": "CCOP(=S)(OCC)SCSP(=S)(OCC)OCC", "Assigned category": "active"}
{"Compound": "C[C@]12CCC(=O)C[C@@H]1CC[C@@H]1[C@@H]2CC[C@]2(C)[C@@H](O)CC[C@@H]12", "Assigned category": "inactive"}

Below: the item to evaluate.
Which outcome was entered for the compound Cc1ccccc1N in this test?
inactive

====

Read-out: Monocyte Chemoattractant Protein-1 (MCP1), CCL2 (gene 6347)
Assay notes: BSK_CASM3C_MCP1: BioMAP Diversity Plus: CASM3C Assay for Monocyte Chemoattractant Protein-1 (MCP1) Biomarker Activity (AID 2283046);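 note: MCP-1 level quantified by ELISA 24 h after dosing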
Assay conditions: primary human coronary artery smooth muscle cells; actives raise or lower the signal
The source made the active and inactive calls. The calls were made as follows: active = hit-call score of the fitted dose curve at least 0.9, where 1 is the maximum; inactive = score below 0.9.
Respond using exactly one of the listed classes: y for active, n for inactive

Worked examples, 3 compounds total:
{"Compound": "O=C(O)C(F)(F)C(F)(F)C(F)(F)C(F)(F)C(F)(F)C(F)(F)C(F)(F)C(F)(F)C(F)(F)C(F)(F)F", "Assigned category": "n"}
{"Compound": "O=[N+]([O-])c1ccc(O)c([N+](=O)[O-])c1", "Assigned category": "n"}
{"Compound": "Nc1ncc([N+](=O)[O-])s1", "Assigned category": "n"}

Which outcome was entered for the compound C[C@@H]1C[C@@H]([C@H](O)CC2CC(=O)NC(=O)C2)C(=O)[C@@H](C)C1 in this test?
y

Which outcome was entered for the compound C(=NC1CCCCC1)=NC1CCCCC1 in this test?
y

Which outcome was entered for the compound CC(=O)OC(c1ccccc1)C(Cl)(Cl)Cl (stereo unspecified) in this test?
n

Which outcome was entered for the compound COP(=S)(OC)Oc1ccc(S(=O)(=O)N(C)C)cc1 in this test?
n

Which outcome was entered for the compound ClCC(Cl)CCl in this test?
n

Which outcome was entered for the compound CCOP(=S)(OCC)Oc1nc(Cl)c(Cl)cc1Cl in this test?
n

Which outcome was entered for the compound COC[C@H](C)N(C(=O)CCl)c1c(C)csc1C in this test?
n

Which outcome was entered for the compound CC(C)CCCCCCOC(=O)c1ccccc1C(=O)OCCCCCCC(C)C in this test?
n

====

Experimental target: Aryl hydrocarbon receptor (Homo sapiens)
Assay notes: ATG_Ahr_CIS: Attagene CIS-FACTORIAL HepG2 Assay for human Aryl Hydrocarbon Receptor (Ahr) (AID 2282930)
Assay conditions: HepG2 AhR cis-factorial reporter transcription; actives raise or lower the signal
Description: ATG_CIS is a cell-based, multiplexed-readout assay that uses HepG2, a human liver cell line, with measurements taken at 24 hours after chemical dosing in a 24-well plate.ATG_Ahr_CIS is one of 52 assay component(s) measured or calculated from the ATG_CIS assay. […] This assay endpoint, ATG_Ahr_CIS, was analyzed with bidirectional fitting relative to DMSO as the negative control and baseline of activity. […]
Calls of active or inactive are those of the source. How the source made its calls: active means hit-call score of the fitted dose curve at least 0.9, where 1 is the maximum; inactive means score below 0.9.
Measurement name: AC50

Example compounds with recorded AC50:
{"Compound": "CC1(C)CCC(Cc2ccc(Cl)cc2)C1(O)Cn1cncn1 (stereo not given)", "AC50": "4.7 µM (active)"}
{"Compound": "Cn1sc(Cl)cc1=O", "AC50": "67.3 µM (active)"}
{"Compound": "CCC(C)(C)c1ccc(O)c(C(C)(C)CC)c1", "AC50": "inactive"}
{"Compound": "O=C(O)C(F)(F)C(F)(F)C(F)(F)C(F)(F)C(F)(F)C(F)(F)C(F)(F)C(F)(F)C(F)(F)C(F)(F)F", "AC50": "inactive"}
{"Compound": "CC(C)(c1ccc(OCC2CO2)cc1)c1ccc(OCC2CO2)cc1 (stereo not given)", "AC50": "inactive"}

Lab entry: Aryl hydrocarbon receptor (Homo sapiens) assay, compound O=P(O)(O)CN(CP(=O)(O)O)CP(=O)(O)O , AC50 = inactive

Lab entry: Aryl hydrocarbon receptor (Homo sapiens) assay, compound ClCCBr , AC50 = inactive

Lab entry: Aryl hydrocarbon receptor (Homo sapiens) assay, compound CCC[CH2][Sn]([Cl])([Cl])[Cl] , AC50 = inactive

Lab entry: Aryl hydrocarbon receptor (Homo sapiens) assay, compound CC(=[OH+])/C=C(/C)[O-].CC(=[OH+])/C=C(/C)[O-].CC(=[OH+])/C=C(/C)[O-].[Fe] , AC50 = inactive

====

Read-out: Plasminogen activator inhibitor-1 (PAI1), SERPINE1 (gene 5054)
Assay notes: BSK_BE3C_PAI1: BioMAP Diversity Plus: BE3C Assay for Plasminogen activator inhibitor-1 (PAI1) Biomarker Activity (AID 2283037)
Assay conditions: primary human bronchial epithelial cells; actives raise or lower the signal
Active and inactive are the calls of the source. How the source made its calls: active means hit-call score of the fitted dose curve at least 0.9, where 1 is the maximum; inactive means score below 0.9.
Respond using exactly one of the listed classes: y for active, n for inactive

{"Given smiles": "Cn1sc(Cl)cc1=O", "Assigned category": "n"}

Which outcome was entered for the compound C[C@@H]1C[C@@H]([C@H](O)CC2CC(=O)NC(=O)C2)C(=O)[C@@H](C)C1 in this test?
y

Which outcome was entered for the compound Cc1ccccc1N in this test?
n

Which outcome was entered for the compound NC(=O)O in this test?
n

Which outcome was entered for the compound C=CC(=O)OCCCCCC(C)C in this test?
n

====

Read-out: Macrophage colony-stimulating factor (MCSF), CSF1 (gene 1435)
Assay notes: BSK_LPS_MCSF: BioMAP Diversity Plus: LPS Assay for Macrophage colony-stimulating factor (MCSF) Biomarker Activity (AID 2283083)
Assay conditions: primary human HUVEC with PBMC; actives raise or lower the signal
The source made the active and inactive calls. Rule for the calls: active = hit-call score of the fitted dose curve at least 0.9, where 1 is the maximum; inactive = score below 0.9.
Measurement name: AC50

Example compounds with recorded AC50:
{"Given smiles": "Cn1sc(Cl)cc1=O", "AC50": "29.5 µM (active)"}
{"Given smiles": "CC(=O)[O][Hg][c]1ccccc1", "AC50": "0.989 µM (active)"}
{"Given smiles": "CC(C)CCCCCCOC(=O)c1ccccc1C(=O)OCCCCCCC(C)C", "AC50": "inactive"}
{"Given smiles": "ClC1=C(Cl)[C@]2(Cl)[C@H]3[C@H]([C@H]4C=C[C@H]3C4)[C@@]1(Cl)C2(Cl)Cl", "AC50": "inactive"}
{"Given smiles": "CCCCCCCCC(=O)NCc1ccc(O)c(OC)c1", "AC50": "inactive"}

Consider COP(=S)(OC)Oc1cc(Cl)c(Cl)cc1Cl . Its measured AC50 is inactive
